- Target or system: recombinant human adrenergic beta 1 receptors (Homo sapiens, UniProt P08588)
- Construct: purchased Euroscreen
- Sequence (P08588 whole entry): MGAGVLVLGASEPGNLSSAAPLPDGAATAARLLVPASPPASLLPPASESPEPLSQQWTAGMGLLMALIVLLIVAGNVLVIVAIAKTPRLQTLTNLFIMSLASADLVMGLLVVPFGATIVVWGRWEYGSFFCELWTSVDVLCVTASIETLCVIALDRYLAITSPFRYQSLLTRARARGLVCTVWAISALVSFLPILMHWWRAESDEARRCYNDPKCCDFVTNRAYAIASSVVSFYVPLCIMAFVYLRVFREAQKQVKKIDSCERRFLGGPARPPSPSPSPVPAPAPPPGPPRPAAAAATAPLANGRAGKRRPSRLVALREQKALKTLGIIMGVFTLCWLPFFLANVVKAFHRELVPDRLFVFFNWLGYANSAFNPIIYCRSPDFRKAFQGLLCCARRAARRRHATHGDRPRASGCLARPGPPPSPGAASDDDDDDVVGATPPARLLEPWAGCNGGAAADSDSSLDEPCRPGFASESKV
- Method description: Adrenergic β1 selectivity assay, [125I]-Iodocyanopindolol binding to membranes
- Condition parameters: inhibition of [125I]-Iodocyanopindolol binding, read-out: β1 pEC50 (converted)
- Protocol: Membranes containing recombinant human adrenergic beta 1 receptors were obtained from Euroscreen. […] Assays were performed in U-bottomed 96-well polypropylene plates. […] Five washes with 250 μL wash buffer (50 mM HEPES, 1 mM EDTA, 120 mM NaCl, pH 7.4) were performed at 4° C. to remove unbound radioactivity. […] The plates were sealed (TopSeal A) and filter-bound radioactivity was measured with a scintillation counter (TopCount, Packard BioScience) using a 3-minute counting protocol. […]
Where a name gives a salt, the structure may show the parent alone.
Task for the reader: assign each of the following compounds its reported EC50.
One number for each entry, in nM.

Use the examples below as a reference point.
- Compound: "O=c1[nH]c2c(O)ccc([C@@H](O)CNCCc3cccc(CN[C@@H]4C[C@H]4c4ccc(F)cc4)c3)c2s1 [Example 10, bis-trifluoroacetate salt]"
  Units: "nM"
  Measurement: 200
- Compound: "O=c1[nH]c2c(O)ccc([C@@H](O)CNCCc3cccc(CN4CCCC4)c3)c2s1 [Example 51, bis-hydrochloride salt]"
  Units: "nM"
  Measurement: 1260
- Compound: "CC(C)NCc1ccc(CCNC[C@H](O)c2ccc(O)c3[nH]c(=O)sc23)cc1 [Example 53, bis-trifluoroacetate salt]"
  Units: "nM"
  Measurement: 251

For every item in the list below, what is its measured EC50?
1. CC(Cc1cccc(CNCCc2c(Cl)cccc2Cl)c1)NC[C@H](O)c1ccc(O)c2[nH]c(=O)sc12 (stereo partly drawn) [Example 15, bis-trifluoroacetate salt]
2. O=c1[nH]c2c(O)ccc([C@@H](O)CNCCc3cccc(CNCCc4c(Cl)cccc4Cl)c3)c2s1 [Example 1, bis-trifluoroacetate salt]
3. COc1ccccc1CNCCc1cccc(CCNC[C@H](O)c2ccc(O)c3[nH]c(=O)sc23)c1 [Example 45, bis-hydrochloride salt]
4. COc1ccccc1CNCc1cccc(CCNC[C@H](O)c2ccc(O)c3[nH]c(=O)sc23)c1 [Example 36, bis-trifluoroacetate salt]
5. COCCNCc1cccc(CCNC[C@H](O)c2ccc(O)c3[nH]c(=O)sc23)c1 [Example 13, di-hydrochloride salt]
6. O=c1[nH]c2c(O)ccc([C@@H](O)CNCCc3cccc(CN4CCCCCC4)c3)c2s1

Result ::
1. 15.8
2. 12.6
3. 63.1
4. 50.1
5. 158
6. 398

* * *

- Target or system: Adrenergic β2 (Homo sapiens, UniProt P07550)
- Construct: endogenous in cells; host or cells: H292 cells
- Sequence (P07550 whole entry): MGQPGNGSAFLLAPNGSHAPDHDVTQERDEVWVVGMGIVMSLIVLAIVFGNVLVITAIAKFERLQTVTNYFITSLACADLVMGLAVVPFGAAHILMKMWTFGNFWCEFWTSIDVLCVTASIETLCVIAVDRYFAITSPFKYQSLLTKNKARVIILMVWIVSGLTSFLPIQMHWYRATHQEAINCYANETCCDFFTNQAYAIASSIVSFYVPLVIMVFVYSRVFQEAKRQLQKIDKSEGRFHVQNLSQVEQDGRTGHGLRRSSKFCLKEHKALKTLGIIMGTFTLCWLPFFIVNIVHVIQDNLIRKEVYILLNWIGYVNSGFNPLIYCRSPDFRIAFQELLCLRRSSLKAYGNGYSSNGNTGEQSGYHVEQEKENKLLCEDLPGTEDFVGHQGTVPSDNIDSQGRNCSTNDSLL
- Method description: Adrenergic β2 mediated cAMP production in H292 cells (AlphaScreen cAMP detection)
- Type: cell-based
- Condition parameters: fraction relative to the maximum activity determined for formoterol in each experiment; H292 cells, cAMP
- Protocol: Adrenergic β2 Mediated cAMP Production H292 cells were grown in RPMI (Roswell Park Memorial Institute) medium containing, 10% (v/v) FBS (foetal bovine serum) and 2 mM L-glutamine. […] The media from flasks containing H292 cells was removed, rinsed with 10 mL PBS phosphate buffered saline) and replaced with 10 mL Accutase™ cell detachment solution. […] The cell suspension was counted and the cells re-suspended in RPMI media (containing 10% (v/v) FBS and 2 mM L-glutamine) at 0.05×10^6 cells per mL. […]
Counter-ions that a name gives are not always drawn.
Measurement label: Intrinsic Activity
One number for each entry.

Worked examples, 5 molecules total:
- Molecule: "CC(C)NCc1ccc(CCNC[C@H](O)c2ccc(O)c3[nH]c(=O)sc23)cc1 [Example 53, bis-trifluoroacetate salt]"
  Measurement label: "Intrinsic Activity"
  Measurement: 0.9
- Molecule: "O=c1[nH]c2c(O)ccc([C@@H](O)CNCCc3cccc(CN4CCCC4)c3)c2s1 [Example 51, bis-hydrochloride salt]"
  Measurement label: "Intrinsic Activity"
  Measurement: 1.1
- Molecule: "O=c1[nH]c2c(O)ccc([C@@H](O)CNCCc3cccc(CNCCc4c(Cl)cccc4Cl)c3)c2s1 [Example 1, bis-trifluoroacetate salt]"
  Measurement label: "Intrinsic Activity"
  Measurement: 0.8
- Molecule: "O=c1[nH]c2c(O)ccc([C@@H](O)CNCCc3cccc(CN[C@@H]4C[C@H]4c4ccc(F)cc4)c3)c2s1 [Example 10, bis-trifluoroacetate salt]"
  Measurement label: "Intrinsic Activity"
  Measurement: 1.0
- Molecule: "O=c1[nH]c2c(O)ccc([C@@H](O)CNCCc3cccc(CNCCc4cccc[n+]4[O-])c3)c2s1 [Example 40, bis-trifluoroacetate salt]"
  Measurement label: "Intrinsic Activity"
  Measurement: 0.8

Please state Intrinsic Activity for every molecule in the list that follows.
1. CC(C)OCCCNCc1cccc(CCNC[C@H](O)c2ccc(O)c3[nH]c(=O)sc23)c1 [Example 64, bis-hydrochloride salt]
2. O=c1[nH]c2c(O)ccc([C@@H](O)CNCCc3cccc(CN4CCCCCC4)c3)c2s1
3. O=c1[nH]c2c(O)ccc([C@@H](O)CNCCc3cccc(CN4CCOCC4)c3)c2s1 [Example 72, bis-hydrochloride salt]

Result ::
0.8
0.9
0.9

* * *

- Target or system: recombinant human α1D receptor (Homo sapiens, UniProt P25100)
- Construct: expressed in transfected cells; host or cells: HEK293
- Sequence (P25100 1-572): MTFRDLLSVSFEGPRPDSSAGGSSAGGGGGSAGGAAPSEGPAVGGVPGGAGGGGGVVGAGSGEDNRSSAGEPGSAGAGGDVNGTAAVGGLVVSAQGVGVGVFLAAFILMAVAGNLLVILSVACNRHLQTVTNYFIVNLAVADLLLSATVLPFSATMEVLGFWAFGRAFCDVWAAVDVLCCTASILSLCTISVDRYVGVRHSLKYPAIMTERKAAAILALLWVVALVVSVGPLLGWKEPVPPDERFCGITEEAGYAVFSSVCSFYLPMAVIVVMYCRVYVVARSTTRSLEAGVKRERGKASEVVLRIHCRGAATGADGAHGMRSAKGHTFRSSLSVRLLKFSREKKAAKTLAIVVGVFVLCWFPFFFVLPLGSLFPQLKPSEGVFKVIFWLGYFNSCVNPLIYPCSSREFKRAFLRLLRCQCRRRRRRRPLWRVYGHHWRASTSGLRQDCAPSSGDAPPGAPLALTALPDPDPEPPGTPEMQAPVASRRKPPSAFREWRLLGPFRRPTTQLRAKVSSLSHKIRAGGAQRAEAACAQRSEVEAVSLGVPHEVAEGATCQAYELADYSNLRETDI
- Method description: Adrenergic α1D selectivity assay, [3H]-prazosin binding to HEK293 membranes
- Condition parameters: inhibition of [3H]-prazosin binding, HEK293 membranes with recombinant human α1D; read-out: α1D pEC50 (converted)
Counter-ions that a name gives are not always drawn.
Measurement label: log10(EC50) (log10 of the value in nM)
Log10 applied to EC50; unit prior to transform: nM.

- Molecule: "CC(Cc1cccc(CNCCc2c(Cl)cccc2Cl)c1)NC[C@H](O)c1ccc(O)c2[nH]c(=O)sc12 (stereo partly drawn) [Example 15, bis-trifluoroacetate salt]"
  Measurement label: "log10(EC50)"
  Measurement: 1.60
- Molecule: "O=c1[nH]c2c(O)ccc([C@@H](O)CNCCc3cccc(CNCCc4cccc[n+]4[O-])c3)c2s1 [Example 40, bis-trifluoroacetate salt]"
  Measurement label: "log10(EC50)"
  Measurement: 2.00
- Molecule: "O=c1[nH]c2c(O)ccc([C@@H](O)CNCCc3cccc(CN4CCOCC4)c3)c2s1 [Example 72, bis-hydrochloride salt]"
  Measurement label: "log10(EC50)"
  Measurement: 2.60
- Molecule: "O=c1[nH]c2c(O)ccc([C@@H](O)CNCCc3cccc(CN4CCCCCC4)c3)c2s1"
  Measurement label: "log10(EC50)"
  Measurement: 1.50
- Molecule: "CC(C)OCCCNCc1cccc(CCNC[C@H](O)c2ccc(O)c3[nH]c(=O)sc23)c1 [Example 64, bis-hydrochloride salt]"
  Measurement label: "log10(EC50)"
  Measurement: 2.60

With those in mind, consider the next molecule.
// O=c1[nH]c2c(O)ccc([C@@H](O)CNCCc3ccc(CNCCc4ccccn4)cc3)c2s1 [Example 22, tris-trifluoroacetate salt] : log10(EC50) value = 1.40

* * *

- Target or system: recombinant human adrenergic beta 1 receptors (Homo sapiens)
- Construct: purchased Euroscreen
- Method description: Adrenergic β1 selectivity assay, [125I]-Iodocyanopindolol binding to membranes
- Condition parameters: inhibition of [125I]-Iodocyanopindolol binding, read-out: β1 pEC50 (converted)
Structures can show the parent of a compound that is named as a salt.
hey, just use criterion met if measured EC50 is less than 80 nM, otherwise criterion not met

Solved cases (3 shown):
- Compound: "O=c1[nH]c2c(O)ccc([C@@H](O)CNCCc3cccc(CN4CCOCC4)c3)c2s1 [Example 72, bis-hydrochloride salt]"
  Class assignment: "criterion not met"
- Compound: "CC(C)OCCCNCc1cccc(CCNC[C@H](O)c2ccc(O)c3[nH]c(=O)sc23)c1 [Example 64, bis-hydrochloride salt]"
  Class assignment: "criterion not met"
- Compound: "O=c1[nH]c2c(O)ccc([C@@H](O)CNCCc3ccc(CNCCc4ccccn4)cc3)c2s1 [Example 22, tris-trifluoroacetate salt]"
  Class assignment: "criterion not met"

Query :: Is EC50 strictly under 80 nM for the entry O=c1[nH]c2c(O)ccc([C@@H](O)CNCCc3cccc(CNCc4ccccc4Cl)c3)c2s1 [Example 3, bis-trifluoroacetate salt] ?
Result :: criterion met

Query :: Would you kindly verify if EC50 of O=c1[nH]c2c(O)ccc([C@@H](O)CNCCc3cccc(CNCCc4cccc[n+]4[O-])c3)c2s1 [Example 40, bis-trifluoroacetate salt] is strictly less than 80 nM?
Result :: criterion met

These data points were gathered from patent US7951954B2.
